readout-type: melting point (°C)

Sample answers from the record:
molecule	melting point [°C]
CCCCC[C@H]1CC[C@H](c2ccc(-c3ccc(C#N)cc3)cc2)CC1	93
Cn1cncc1C(O)(c1ccc(Cl)nc1)c1ccc2noc(-c3cccc(Cl)c3)c2c1 (stereo not given)	230

[A] Cc1c(C)c(Cl)c2ccccc2c1Cl
[B] Cc1nnc(-c2cccs2)c(=O)n1N
Task: Hi there! Just curious which has the higher melting point between A and B . I would appreciate it if you answered with the label of your choice.
Result: B
(B: 210 °C, A: 142 °C)

* * *

readout-type: melting point

compound	melting point
CCCCCCCCCCCC(=O)NC(CCC(=O)O)C(=O)O (racemic)	101 to 104 °C

Task: Which measured melting point value corresponds to `O=C1Cc2ccc(-c3cnc4[nH]c(=O)n(CC5CCCCC5)c4n3)cc2N1` ?
Result: 334 to 336 °C

Task: Try this compound next: `OCCN(CCO)Cc1nnc2n1-c1ccc(Cl)cc1C(c1ccccc1)=NC2`
Result: 84 to 87 °C

Task: Try this compound next: `COCCOc1cc2ncnc(NC3=CC(=O)C(OCc4ccccc4)=CC3=O)c2cc1OC`
Result: 218 to 220 °C

* * *

Attribute: melting point

molecule	measured
CC(=O)Nc1ccc(Nc2ccccc2)cc1	169 to 171 °C
COc1ccccc1C1(C(=O)O)CCCC1	116 to 124 °C
CCN(CC)CCOC(=O)c1ccc(NC(=O)c2ccc(-c3ccccc3)cc2)cc1	146 to 149 °C
O=C1N(CCCCCl)CCN1c1ccccc1	47.5 to 49 °C
O=C1c2ccccc2C(=O)N1Cc1cc(F)ccc1[N+](=O)[O-]	198 to 200 °C
Cc1cc(C#N)ccc1-c1cccc(C=O)c1	86 to 86.5 °C
CCCCCC1COc2cc(CCC3=Cc4cc(F)cc(F)c4OC3)c(F)cc2C1 (stereo not given)	84 °C
CCC(C)(C)c1ccc(Oc2ccncc2NC(=O)c2ccccc2)c(C(C)(C)CC)c1	253 °C
FC(F)(F)c1ccc(-c2ccc(N3CCCN(c4ccc(-c5ccc(C(F)(F)F)cc5)cn4)CC3)nc2)cc1	236 to 238 °C
CCCCc1ccc(C(=O)Nc2cc(CCCC)c(NC(=O)c3ccc(CCCC)cc3)c3c2C(=O)c2ccccc2C3=O)cc1	180 to 181 °C

Task: Which measured melting point value corresponds to `O=C(O)c1cc(-n2c(-c3ccccc3)cc3c2CCCC3)cc(Cl)c1O` ?
Result: 223 to 225 °C

Task: Try this molecule next: `COCN1C(C)=C(C(=O)O)C(c2cccc(Cl)c2Cl)C(C(=O)O)=C1C`
Result: 155 to 156 °C

Task: Try this molecule next: COc1cc(C)c2[nH]ccc2c1C(N)(c1nc2cc(C#N)ccc2[nH]1)C(F)(F)F (single isomer, unassigned; (-))
Result: 255 °C

Task: Try this molecule next: O=S(CCO)Cc1cccnc1 (stereo not given)
Result: 84 to 86 °C

* * *

readout-type: melting point

compound	melting point
N=C(N)c1ccc(N2CCC(N3CCN(CCC(=O)O)C3=O)CC2)cc1	> 275 °C
CCOC(=O)c1[nH]c2cc(Cl)cc(Cl)c2c1NCC(=O)c1ccc([N+](=O)[O-])cc1	283 to 286 °C
CN=C(NC#N)C1=CC(C)(COC)Oc2ccc([N+](=O)[O-])cc21 (stereo not given)	121 to 125 °C

Task: Which measured melting point value corresponds to `O=C(O)CCCc1ccc(NS(=O)(=O)c2cccc(Cl)c2)cn1` ?
Result: 141 to 142 °C

Task: Try this compound next: Cc1cc(-c2c(F)cc3c(=O)c(C(=O)O)cn4c3c2S(=O)CC4C)cc(C)n1 (stereo not given)
Result: 294 to 295 °C

* * *

readout-type: melting point

Sample answers from the record:
molecule	melting point
c1cncc(C2CCCCC2)c1	78 to 80 °C
CC(C)C(=O)NC1=NN(c2cccc(C(F)(F)F)c2)CC1	167 to 168 °C
Cc1cnc(CN2CCNC2=C[N+](=O)[O-])cn1	163 to 166 °C

Task: Which measured melting point value corresponds to CCC(=O)NC1Cc2cccc3ccc(OC)c(c23)C1 (stereo not given) ?
Result: 184 to 186 °C

Task: Try this molecule next: CCN(CC)C(=O)[C@H]1CN2CC[C@H]1[C@H](NCc1cc(OC)ccc1OC)[C@@H]2C(c1ccccc1)c1ccccc1 (relative stereo)
Result: 153 to 154 °C

* * *

readout-type: melting point

compound	readout-type	measured
COc1cc(OCCN2CCCCC2)ccc1/C=C/c1cc(/C=C/c2ccc3cc[nH]c3c2)n[nH]1	melting point	150 to 155 °C
CC(C)C(NC(=O)Nc1ccc(C(=O)NCC(=O)N(C)C)cc1)C(=O)N1CCCC1C(=O)NC(C(=O)C(F)(F)F)C(C)C (mixture of isomers)	melting point	115 to 125 °C
COC(=O)CCc1ccc(NC(=O)c2cc(C(C)C)c(C(C)C)o2)cc1	melting point	93 to 94 °C
COC(=O)C1CCc2cc(C(=O)c3ccccc3)c(OC)cc21 (centres undefined)	melting point	126 to 128 °C
CC1(CN2CCC(N3CCNC3=O)CC2)OCc2ccccc2-n2cccc21 (centres undefined)	melting point	197 to 199 °C

Task: Which measured melting point value corresponds to `Cc1ccc(S(=O)(=O)c2ccc(C)cc2CC(Cl)(Cl)C#N)c(CC(Cl)(Cl)C#N)c1` ?
Result: 71 to 72 °C

Task: Try this compound next: `CC(C)CN1C(=O)C(C)(C)C(=O)Nc2cc(C#N)ccc21`
Result: 204 to 205 °C

Task: Try this compound next: `CCOC(=O)c1ccc(F)cn1`
Result: 61 to 63 °C

Task: Try this compound next: `O=C1CCc2cc(Cl)c([N+](=O)[O-])cc21`
Result: 110 to 113 °C

Task: Try this compound next: `C[Si]1(C)CC[Si](C)(C)N1c1ccc(Br)cn1`
Result: 50.4 to 55.8 °C

* * *

Attribute: melting point

Sample answers from the record:
molecule	melting point
CC(C)n1nc(-c2cnc(N)nc2-c2cccs2)ccc1=O	213 °C
CCOc1c(C#N)sc(NC(C)=O)c1C#N	267 to 268 °C
CC(CCOc1ccccc1NS(C)(=O)=O)N1CCC(OC(c2ccccc2)c2cccs2)CC1 (stereo not drawn)	100 to 102 °C
CN(C)C1(C#N)CCC(c2ccccc2)(N(C)C)CC1 (stereo not drawn)	82 to 92 °C
COC(=O)c1ccc2[nH]c(/C=C/c3ccc(OC)c(OC)c3)nc2c1	185 to 188 °C
Cc1cccc(N(c2ccccc2)c2ccc(-c3ccc(-c4ccc(N(c5ccccc5)c5cccc(C)c5)cc4)cc3)cc2)c1	189 to 190 °C

Task: Which measured melting point value corresponds to CC1Cc2cc(S(=O)(=O)n3cc(-c4ccccc4)[nH]c3=O)ccc2N1C(=O)c1ccc(NC(=O)CCl)cc1 (stereo not drawn) ?
Result: 246 °C

Task: Try this molecule next: `Nc1c(Cl)cc(C(F)(F)F)c(Cl)c1Cl`
Result: 37 to 39 °C

* * *

Attribute: melting point

Sample answers from the record:
molecule	measured
CCC1CCc2nc3c(c(N)c2C1=O)c1ccccc1n3C (stereo unspecified)	129 to 131 °C
C=CCc1cc(Cc2cnc(N)nc2N)c2ccc(C)nc2c1OC	219 to 222 °C
CCOC(=O)c1cc2c(nc1C(=O)OCC)OCC2O (stereo unspecified)	73 to 77 °C
COc1nc2ncccc2c2nc(SCc3ccccc3)nn12	282 to 284 °C
CN1CCOc2ccc(S(=O)(=O)Nc3ccc(CCl)cc3I)cc21	109 to 110 °C
CCOc1c(OC)cc(N)cc1OC	88 to 89 °C

Task: Which measured melting point value corresponds to `O=C1c2cc(F)cc(F)c2CC[C@@H]1NC(=O)C(F)(F)F` ?
Result: 142 to 145 °C

* * *

readout-type: melting point

Sample answers from the record:
O=C(c1ccccc1)N1CC2CSCC(C2)C1 95 to 96 °C
FC(F)(F)c1ccn(-c2ccnc(Cl)n2)n1 111 to 112 °C
N#Cc1ccc(C(=C2CCOC2=O)n2ccnc2)cc1 194 to 197 °C
CNC(=S)n1nc(NC(C)=O)nc1N > 300 °C
COc1cc(C2(OC)CCOCC2)ccc1OCc1ccc2c(ccc(=O)n2C)c1 172 to 173 °C

Task: Which measured melting point value corresponds to `CN=C(Cl)c1ccc([N+](=O)[O-])cc1` ?
Result: 67 to 73 °C

* * *

readout-type: melting point

compound	readout-type	measured
Cc1cccc(C)c1C(=O)NC(C)(C)C	melting point	134 to 136 °C
CN(CCCNC(=O)NCCCOc1cccc(CN2CCCCC2)c1)CCN(Cc1ccc(F)cc1)c1ccccn1	melting point	123 to 125 °C
COc1ccc(S(=O)(=O)N(Cc2ccccc2)c2c(C(=O)NO)cnc3c2c(C)nn3C)cc1	melting point	184 to 186 °C
COc1cc2c(cc1OCc1ccccc1)CCN(Cc1cccc(O[Si](C(C)C)(C(C)C)C(C)C)c1)C2	melting point	78 to 79 °C
Nc1ccc(CN2C(=O)[C@H]3CCC[C@H]3N(C(=O)CN3C(=O)c4ccccc4C3=O)c3ccccc32)cc1 (relative stereo)	melting point	286 to 289 °C
O=C(Nc1ccccc1)n1[nH]c(C(F)(F)F)cc1=O	melting point	109 to 110 °C

Task: Which measured melting point value corresponds to `OCCn1cc2c(n1)CN=C(c1ccccc1)c1cc(Cl)ccc1-2` ?
Result: 173 to 175 °C

Task: Try this compound next: `C(=C\c1nc(COc2cccc(CCCCn3ccnc3)c2)co1)/c1ccccc1`
Result: 75 to 76 °C

Task: Try this compound next: `CC/C(=N\OCCCOc1ccc(C(=O)O)c(NC(=O)c2ccc(C(F)(F)F)cc2)c1)c1ccc(C(C)(C)C)cc1`
Result: 149 to 151 °C

Task: Try this compound next: `O=C(c1ccc(Cl)c([N+](=O)[O-])c1)c1ccccn1`
Result: 98 to 99 °C

Source: a melting point compilation (Tetko et al.; mined from patent text by program, amines drawn as free bases though some values may be those of a salt)
